- assay overview: protein stability index of a GFP-peptide fusion (GPS, HEK-293T) (PSI 1-6); higher = more stable;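 further: 24-mer peptide tiles fused after GFP, lentivirally expressed, FACS-sorted into six equal bins by GFP/DsRed ratio, decoded by Illumina sequencing, PSI is the read-weighted mean bin number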
- experimental conditions: treatment: DMSO; c terminus: a fixed tail appended
Give measured protein stability index for each item. Keep answers brief.
Reply with just the number.

Any idea what protein stability index was measured for VFEYCDHTLLNELERNPNGVADGV [CDKL4] ?
3.89

Any idea what protein stability index was measured for KATNVVMNYSEIESKVREATNDDP [CLINT1] ?
5.35

Any idea what protein stability index was measured for LSQAGQKTSAALSTVGSAISRKLG [TPD52L2] ?
3.67

Any idea what protein stability index was measured for MQPFNYVTLQCLAARALDKNKIPY [FEM1A] ?
3.25

Any idea what protein stability index was measured for LMGDESACIAYIRITQYLDAGGIP [CAMK2A] ?
3.21

Any idea what protein stability index was measured for HEDLLTRIGEATKPDGTVEQIGHI [NET1] ?
4.95

Any idea what protein stability index was measured for MKAHSFVRENVPRVLNSAKEKSST [SOAT1] ?
4.58
